# Potency listing for each entry below
- METHOD DESCRIPTION: Quantitative High-Throughput drug screen in 47 multiple myeloma cell lines against the NCATS MIPE library collection: AMO1_DSMZ cell viability assay (AID 1918927; further: potency means the concentration at half of the fitted maximal effect; nearly all actives have a fitted effect of over 30% in size)
- ASSAY CONDITIONS: AMO1 myeloma cells viability, CellTiter-Glo ATP luminescence, 48 h; series mostly up to 45.8 µM
- Text: PI: Beverly A. Mock Ph.D. Laboratory of Cancer Biology and Genetics, Center for Cancer Research, National Cancer Institute, National Institute of Health, Bethesda, Maryland […] 5; Detector; 425V; Luminescence; Viewlux PerkinElmer. […] 1. […] Briefly, the corresponding myeloma cell lines were screened in 1,536-well plates with 500 cells, 5-uL per well for inhibition of cell viability (assessed by measuring ATP levels with CellTiterGlo). […]
Results filed as inconclusive are left out. The source made the active and inactive calls. The call rests on the fitted dose curve; in most records, active means well fitted cell-killing curve with a large enough effect; inconclusive means small, poorly fitted or top-dose-only effect, or effect the other way; inactive means no such curve, though single readings can be large or run the other way.

Would you please look over these solved cases?
{"COMPOUND STRING": "COc1cccc(Nc2c(C(N)=O)cnc3c(C)cc(S(=O)(=O)c4cccc(C(=O)N(C)C)c4)cc23)c1", "Potency": "12900 nM (active)"}
{"COMPOUND STRING": "CN(c1ncccc1CNc1nc(Nc2ccc3c(c2)CC(=O)N3)ncc1C(F)(F)F)S(C)(=O)=O", "Potency": "3320 nM (active)"}
{"COMPOUND STRING": "Cc1cc(N2CCOCC2)cc2[nH]c(-c3c(NC[C@@H](O)c4cccc(Cl)c4)cc[nH]c3=O)nc12", "Potency": "526 nM (active)"}
{"COMPOUND STRING": "OCCCNc1cc(-c2ccnc(Nc3cccc(Cl)c3)n2)ccn1", "Potency": "74.3 nM (active)"}

Now examine the next entry.
# query: Potency of entry "Cc1cc(Nc2cc(CN3CCOCC3)c3nc(C)c(Cc4ccc(Cl)cc4F)n3n2)n[nH]1"
526 nM (active)

----------
As shown below, each of these molecules has a reported growth, % of control value.
- METHOD DESCRIPTION: qHTS profiling of the MIPE4 collection as inhibitors of Plasmodium falciparum (HB3) proliferation (AID 743347);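 further: plate controls were DMSO vehicle wells for no effect and artemisinin wells for full effect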
- ASSAY CONDITIONS: P. falciparum HB3 in erythrocytes, SYBR Green DNA, 72 h; at 28.5 µM (top of the series) unless noted
Put down the number, then write its unit next to it.

Illustrative cases are given below, each with its answer.
{"MOLECULE": "O=c1[nH]c(=O)n(C2CCCO2)cc1F (stereo not drawn)", "growth, % of control": "412% [at 57.5 µM]"}
{"MOLECULE": "Cc1cc(Nc2cc(N3CCN(C)CC3)nc(C=Cc3ccccc3)n2)n[nH]1", "growth, % of control": "2.5% [at 57.5 µM]"}

Now consider the entry below.
Which growth, % of control is reported for this molecule? "O=C(O)[C@H](Cc1c[nH]c2ccccc12)N1C(=O)c2ccccc2C1=O"
106% [at 57.5 µM]

----------
- METHOD DESCRIPTION: qHTS of pediatric cancer cell lines to identify multiple opportunities for drug repurposing: Confirmatory screen for control Hh wild type fibroblast cells (AID 1347121); further: nearly all actives have a fitted effect of over 70% in size
- ASSAY CONDITIONS: viability qHTS; series mostly up to 45.9 µM
Inconclusive results are not listed. Activity calls are given as the source filed them. Calls come from the whole dose curve; as a rule, active = well fitted cell-killing curve with a large enough effect; inconclusive = small, poorly fitted or top-dose-only effect, or effect the other way; inactive = flat fitted curve, though single readings scatter.
Respond using exactly one of the listed classes: 1 (yes) (active), 0 (no) (inactive)

{"COMPOUND": "Cc1nc(Nc2n[nH]c3c2CN(C(=O)N[C@H](CN(C)C)c2ccccc2)C3(C)C)c2sccc2n1", "GROUP LABEL": "0 (no)"}

Entry "Cc1ccc(NC(=O)C2(c3ccc4c(c3)OC(F)(F)O4)CC2)nc1-c1cccc(C(=O)O)c1" : call = ?
0 (no)

What call does the record list for "C=CCn1c(=O)c2cnc(Nc3ccc(N4CCN(C)CC4)cc3)nc2n1-c1cccc(C(C)(C)O)n1" ?
0 (no)

// param item: "CN1CC[C@@H](c2c(O)cc(O)c3c(=O)cc(-c4ccccc4Cl)oc23)[C@@H](O)C1" ; yields the recorded call
0 (no)

GET /call?item= "Cc1cc(Nc2cc(N3CCN(C)CC3)nc(Sc3ccc(NC(=O)C4CC4)cc3)n2)n[nH]1" returns the recorded outcome of this test.
0 (no)

Kindly provide the recorded test outcome for the following compound: "COc1cccc(-c2ccc(NC(=O)C3=C(C(=O)O)CCC3)c(F)c2)c1"
0 (no)

# outcome recorded in this test, key = "CNC(=O)c1ccc(N2C(=S)N(c3cnc(C#N)c(C(F)(F)F)c3)C(=O)C23CCC3)cc1F"
0 (no)

// outcome(item) with item = "C=CC(=O)N1CCC[C@@H](n2nc(-c3ccc(Oc4ccccc4)cc3)c3c(N)ncnc32)C1"
0 (no)

Short answer needed: outcome of this test for "CCN1CCN(Cc2ccc(-c3cc4c(N[C@H](C)c5ccccc5)ncnc4[nH]3)cc2)CC1" ?
1 (yes)

Outcome logged for "CC=CC1=C(C(=O)O)N2C(=O)[C@H](NC(=O)[C@H](N)c3ccc(O)cc3)[C@@H]2SC1" in this assay:
0 (no)

Record lookup: outcome of this test for "Cc1cn(-c2cc(NC(=O)c3ccc(C)c(Nc4nccc(-c5cccnc5)n4)c3)cc(C(F)(F)F)c2)cn1" ?
0 (no)
